Data provenance: paper PMC9369135

# assayed.target: T1, Human EGFR/HER1/ErbB1 protein (His tag) (human, UniProt P00533 25-645)
# T1 construct: human EGFR/HER1/ErbB1, recombinant protein with His tag, Sino Biological 10001-H08H; Check the vendor's data sheet; source: bought: Sino Biological
# test.summary: MST; protein in a series of gradient dilutions, an equal amount of labeled CP7 peptide added; PBS with 0.05% Tween-20; glass capillary; room temperature; Monolith NT.115
# condition.summary: both partners purified
Where no end group is shown, it is not given here.
attribute.measured: pKd
A value of pKd is the negative decimal logarithm of a concentration given in moles per litre.

Query (binder): CIQPFYP (also: labelled, label not named, novel peptide designed and screened by the authors' group; The methods of the MST say only 'the labeled peptide'; source: synthetic peptide: Shanghai GL Biochem Peptide Ltd) [CP7 peptide (CIQPFYP)] ; field requested: pKd
6.41
